biological target: TORC1 (Saccharomyces cerevisiae, UniProt P35169); assay: Yeast TORC1 kinase activity assays (radioactive IVK, Lst4^Loop substrate)
Sequence (P35169 whole entry): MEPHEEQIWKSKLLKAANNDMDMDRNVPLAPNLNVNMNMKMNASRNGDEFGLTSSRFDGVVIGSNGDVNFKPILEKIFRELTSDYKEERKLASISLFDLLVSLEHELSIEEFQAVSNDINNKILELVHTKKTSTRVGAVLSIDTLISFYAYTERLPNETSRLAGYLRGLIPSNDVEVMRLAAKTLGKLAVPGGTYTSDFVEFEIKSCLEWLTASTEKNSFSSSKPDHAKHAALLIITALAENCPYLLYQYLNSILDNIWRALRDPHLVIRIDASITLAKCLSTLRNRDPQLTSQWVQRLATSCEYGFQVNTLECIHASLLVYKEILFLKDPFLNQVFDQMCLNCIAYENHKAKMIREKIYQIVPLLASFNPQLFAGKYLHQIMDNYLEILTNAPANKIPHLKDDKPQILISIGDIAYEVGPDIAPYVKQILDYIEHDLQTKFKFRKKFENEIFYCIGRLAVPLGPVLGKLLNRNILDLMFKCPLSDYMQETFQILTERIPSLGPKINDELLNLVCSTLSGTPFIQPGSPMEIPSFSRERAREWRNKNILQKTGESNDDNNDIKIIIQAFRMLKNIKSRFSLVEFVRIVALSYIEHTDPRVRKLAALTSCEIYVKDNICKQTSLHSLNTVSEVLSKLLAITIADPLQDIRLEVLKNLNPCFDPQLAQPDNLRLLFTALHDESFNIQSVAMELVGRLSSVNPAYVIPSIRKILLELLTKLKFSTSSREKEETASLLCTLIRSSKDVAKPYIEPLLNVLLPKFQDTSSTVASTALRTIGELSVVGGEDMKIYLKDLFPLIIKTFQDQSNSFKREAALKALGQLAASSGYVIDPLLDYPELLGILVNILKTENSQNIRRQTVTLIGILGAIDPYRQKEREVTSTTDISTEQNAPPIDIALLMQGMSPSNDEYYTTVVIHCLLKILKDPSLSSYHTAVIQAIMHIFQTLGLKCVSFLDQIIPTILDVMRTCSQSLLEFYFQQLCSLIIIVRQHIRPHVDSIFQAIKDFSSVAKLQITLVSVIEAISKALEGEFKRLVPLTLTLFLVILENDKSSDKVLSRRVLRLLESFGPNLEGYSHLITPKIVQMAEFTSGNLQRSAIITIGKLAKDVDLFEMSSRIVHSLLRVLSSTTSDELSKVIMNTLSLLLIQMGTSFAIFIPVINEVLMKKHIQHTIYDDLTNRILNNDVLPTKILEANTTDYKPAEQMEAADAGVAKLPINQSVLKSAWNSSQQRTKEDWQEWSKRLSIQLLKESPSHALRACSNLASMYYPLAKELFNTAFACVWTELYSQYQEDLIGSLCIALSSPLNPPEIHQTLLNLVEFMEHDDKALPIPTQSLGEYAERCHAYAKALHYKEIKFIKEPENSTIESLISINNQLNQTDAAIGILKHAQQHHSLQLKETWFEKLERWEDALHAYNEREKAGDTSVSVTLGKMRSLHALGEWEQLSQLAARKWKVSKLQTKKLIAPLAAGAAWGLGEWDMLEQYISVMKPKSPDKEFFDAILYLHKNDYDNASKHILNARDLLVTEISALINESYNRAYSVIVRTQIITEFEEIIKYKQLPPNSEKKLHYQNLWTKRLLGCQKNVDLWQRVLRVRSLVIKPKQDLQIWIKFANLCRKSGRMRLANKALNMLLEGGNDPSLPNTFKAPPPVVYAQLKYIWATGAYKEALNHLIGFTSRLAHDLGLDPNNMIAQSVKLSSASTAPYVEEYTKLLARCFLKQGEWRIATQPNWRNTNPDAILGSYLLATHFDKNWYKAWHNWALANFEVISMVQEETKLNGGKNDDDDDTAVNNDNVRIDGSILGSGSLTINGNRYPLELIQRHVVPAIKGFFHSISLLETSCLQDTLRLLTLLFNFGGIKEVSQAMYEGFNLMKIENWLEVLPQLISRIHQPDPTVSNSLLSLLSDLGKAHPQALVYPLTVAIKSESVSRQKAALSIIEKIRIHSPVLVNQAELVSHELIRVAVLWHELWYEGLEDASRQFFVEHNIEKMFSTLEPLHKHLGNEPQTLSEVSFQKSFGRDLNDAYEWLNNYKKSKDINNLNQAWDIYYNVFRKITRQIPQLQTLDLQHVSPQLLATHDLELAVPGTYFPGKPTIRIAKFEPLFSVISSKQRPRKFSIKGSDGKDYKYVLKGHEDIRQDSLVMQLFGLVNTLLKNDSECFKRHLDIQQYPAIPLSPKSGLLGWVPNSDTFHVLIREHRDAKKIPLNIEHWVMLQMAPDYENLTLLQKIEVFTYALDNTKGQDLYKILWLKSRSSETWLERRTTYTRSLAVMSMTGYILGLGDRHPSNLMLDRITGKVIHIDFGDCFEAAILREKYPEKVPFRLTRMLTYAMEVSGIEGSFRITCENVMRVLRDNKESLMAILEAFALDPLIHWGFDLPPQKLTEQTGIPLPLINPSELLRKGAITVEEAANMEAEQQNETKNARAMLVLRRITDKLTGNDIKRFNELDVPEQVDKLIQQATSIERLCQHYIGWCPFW
Sequence (Q08921 whole entry partner): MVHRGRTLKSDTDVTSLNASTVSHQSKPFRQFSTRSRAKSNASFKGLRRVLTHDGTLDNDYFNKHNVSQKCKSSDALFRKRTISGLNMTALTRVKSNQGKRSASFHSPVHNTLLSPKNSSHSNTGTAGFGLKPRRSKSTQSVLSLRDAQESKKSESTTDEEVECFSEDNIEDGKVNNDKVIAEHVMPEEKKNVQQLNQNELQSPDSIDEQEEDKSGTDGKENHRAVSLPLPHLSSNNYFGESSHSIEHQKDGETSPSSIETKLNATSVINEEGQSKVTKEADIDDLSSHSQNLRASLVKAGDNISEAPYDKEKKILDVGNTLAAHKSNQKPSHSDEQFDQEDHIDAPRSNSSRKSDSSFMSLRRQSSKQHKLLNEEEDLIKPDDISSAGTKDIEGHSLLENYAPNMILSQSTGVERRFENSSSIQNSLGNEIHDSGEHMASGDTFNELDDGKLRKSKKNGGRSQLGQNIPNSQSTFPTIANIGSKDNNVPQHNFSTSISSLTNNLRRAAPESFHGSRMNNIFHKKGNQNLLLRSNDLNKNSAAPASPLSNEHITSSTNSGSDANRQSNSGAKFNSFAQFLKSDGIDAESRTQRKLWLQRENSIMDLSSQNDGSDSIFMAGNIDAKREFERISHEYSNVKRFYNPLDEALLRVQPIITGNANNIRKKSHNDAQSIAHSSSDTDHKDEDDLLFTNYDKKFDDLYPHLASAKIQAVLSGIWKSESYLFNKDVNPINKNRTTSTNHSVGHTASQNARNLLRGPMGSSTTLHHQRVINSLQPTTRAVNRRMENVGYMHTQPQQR
Sequence (P38873 whole entry partner): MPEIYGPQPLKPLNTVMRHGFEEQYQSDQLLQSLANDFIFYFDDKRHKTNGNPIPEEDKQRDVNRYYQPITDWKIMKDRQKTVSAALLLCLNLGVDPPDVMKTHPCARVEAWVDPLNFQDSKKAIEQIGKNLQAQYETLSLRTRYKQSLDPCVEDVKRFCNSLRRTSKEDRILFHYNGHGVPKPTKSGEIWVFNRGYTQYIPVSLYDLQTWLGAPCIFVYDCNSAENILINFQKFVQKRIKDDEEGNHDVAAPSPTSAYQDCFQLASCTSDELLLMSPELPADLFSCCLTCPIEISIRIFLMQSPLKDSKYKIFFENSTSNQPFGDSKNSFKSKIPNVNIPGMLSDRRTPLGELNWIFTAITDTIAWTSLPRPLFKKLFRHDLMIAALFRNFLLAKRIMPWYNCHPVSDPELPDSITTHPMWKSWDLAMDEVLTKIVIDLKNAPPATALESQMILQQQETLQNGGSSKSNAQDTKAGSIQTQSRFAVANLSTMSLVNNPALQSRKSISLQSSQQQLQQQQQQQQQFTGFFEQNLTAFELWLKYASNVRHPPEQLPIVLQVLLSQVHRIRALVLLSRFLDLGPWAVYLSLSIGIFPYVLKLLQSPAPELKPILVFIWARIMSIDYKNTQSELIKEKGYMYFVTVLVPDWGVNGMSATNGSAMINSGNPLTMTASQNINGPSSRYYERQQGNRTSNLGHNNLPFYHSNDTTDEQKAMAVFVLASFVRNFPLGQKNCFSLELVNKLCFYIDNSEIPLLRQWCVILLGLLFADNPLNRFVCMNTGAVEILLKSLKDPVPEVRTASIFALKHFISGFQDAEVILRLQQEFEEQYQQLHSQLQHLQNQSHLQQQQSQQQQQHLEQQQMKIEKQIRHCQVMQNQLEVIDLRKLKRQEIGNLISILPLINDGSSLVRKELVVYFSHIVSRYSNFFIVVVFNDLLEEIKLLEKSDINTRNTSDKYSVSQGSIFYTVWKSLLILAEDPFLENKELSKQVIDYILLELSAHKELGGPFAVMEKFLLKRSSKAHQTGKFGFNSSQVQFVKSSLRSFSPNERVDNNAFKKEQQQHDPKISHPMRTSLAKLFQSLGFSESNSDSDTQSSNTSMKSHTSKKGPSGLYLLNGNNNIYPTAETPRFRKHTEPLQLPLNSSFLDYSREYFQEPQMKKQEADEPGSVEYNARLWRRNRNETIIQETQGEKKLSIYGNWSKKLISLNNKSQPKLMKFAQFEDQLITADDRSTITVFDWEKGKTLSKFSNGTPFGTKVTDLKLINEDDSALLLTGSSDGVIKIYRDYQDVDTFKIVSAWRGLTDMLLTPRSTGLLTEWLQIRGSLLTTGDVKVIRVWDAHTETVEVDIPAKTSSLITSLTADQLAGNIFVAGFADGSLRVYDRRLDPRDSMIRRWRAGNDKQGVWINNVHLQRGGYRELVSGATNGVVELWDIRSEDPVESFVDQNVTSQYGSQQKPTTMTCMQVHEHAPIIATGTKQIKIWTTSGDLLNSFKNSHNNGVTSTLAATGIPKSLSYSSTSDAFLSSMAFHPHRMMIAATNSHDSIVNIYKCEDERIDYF
Sequence (P41318 whole entry partner): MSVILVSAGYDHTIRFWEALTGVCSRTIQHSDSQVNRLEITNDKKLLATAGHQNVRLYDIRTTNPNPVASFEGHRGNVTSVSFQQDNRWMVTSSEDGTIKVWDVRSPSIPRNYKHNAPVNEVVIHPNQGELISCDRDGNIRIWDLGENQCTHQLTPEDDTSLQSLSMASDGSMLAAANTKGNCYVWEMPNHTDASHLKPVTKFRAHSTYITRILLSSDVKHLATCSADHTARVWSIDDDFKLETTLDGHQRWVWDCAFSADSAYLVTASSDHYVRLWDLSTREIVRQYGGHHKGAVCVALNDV
MEASURED_METRIC: Ki (µM)

| COMPOUND | RECORDED_VALUE |
| --- | --- |
| CC(C)(COP(=O)(O)OP(=O)(O)OCC1OC(n2cnc3c(N)ncnc32)C(O)C1OP(=O)(O)O)C(O)C(=O)NCCC(=O)NCCSC(=O)CC(=O)O (stereo not shown) | 760 |

* * *

target: Src (Homo sapiens, UniProt P12931)
MEASURED_METRIC: IC50

| MOLECULE | MEASURED_METRIC | RECORDED_VALUE |
| --- | --- | --- |
| CC(C)(COP(=O)(O)OP(=O)(O)OCC1OC(n2cnc3c(N)ncnc32)C(O)C1OP(=O)(O)O)C(O)C(=O)NCCC(=O)NCCSC(=O)CC(=O)O (stereo not shown) | IC50 | 3.04 mM |

* * *

target: TORC1 (Saccharomyces cerevisiae, UniProt P35169); construct: made in house; host or cells: S. cerevisiae strain NIC005 ([RL170-2c] LEU2:GFP-TOR1); experiment: Yeast TORC1 kinase activity assays (radioactive IVK, Lst4^Loop substrate); type: biochemical
pIC50: −log10 of the molar value.
MEASURED_METRIC: pIC50

| COMPOUND | TARGET_ENTITY | RECORDED_VALUE |
| --- | --- | --- |
| CC(C)(COP(=O)(O)OP(=O)(O)OCC1OC(n2cnc3c(N)ncnc32)C(O)C1OP(=O)(O)O)C(O)C(=O)NCCC(=O)NCCSC(=O)CC(=O)O (stereo not shown) | TORC1 (Saccharomyces cerevisiae, UniProt P35169) | 3.48 |

* * *

target: mTORC1 (Homo sapiens, UniProt P42345); construct: endogenous mTORC1 complexes were purified from HEK293FT cells; endogenous in cells; host or cells: HEK293FT (immunoprecipitation of endogenous mTOR); the 4E-BP1 substrate was made in E. coli BL21 RP; test: Mammalian mTORC1 kinase activity assays (IVK, 4E-BP1 substrate); format: biochemical; conditions: read-out: Ki (ATP-competitive, human mTORC1)

| COMPOUND | TARGET_ENTITY | Ki |
| --- | --- | --- |
| CC(C)(COP(=O)(O)OP(=O)(O)OCC1OC(n2cnc3c(N)ncnc32)C(O)C1OP(=O)(O)O)C(O)C(=O)NCCC(=O)NCCSC(=O)CC(=O)O (stereo not shown) [Mal-CoA, malonyl-CoA] | mTORC1 (Homo sapiens, UniProt P42345) | 770 µM |

* * *

target: mTORC1 (Homo sapiens, UniProt P42345); construct: endogenous mTORC1 complexes were purified from HEK293FT cells; endogenous in cells; host or cells: HEK293FT (immunoprecipitation of endogenous mTOR); the 4E-BP1 substrate was made in E. coli BL21 RP; assay: Mammalian mTORC1 kinase activity assays (IVK, 4E-BP1 substrate); format: biochemical
Documented IC50 across a set of compounds

| COMPOUND | IC50 |
| --- | --- |
| CC(C)(COP(=O)(O)OP(=O)(O)OCC1OC(n2cnc3c(N)ncnc32)C(O)C1OP(=O)(O)O)C(O)C(=O)NCCC(=O)NCCSC(=O)CC(=O)O (centres unmarked) | 230 µM |
| CC(C)(COP(=O)(O)OP(=O)(O)OC[C@H]1O[C@@H](n2cnc3c(N)ncnc32)[C@H](O)[C@@H]1OP(=O)(O)O)[C@@H](O)C(=O)NCCC(=O)NCCS | > 5000 µM |

* * *

target: TORC1 (Saccharomyces cerevisiae); construct: made in house; host or cells: S. cerevisiae strain NIC005 ([RL170-2c] LEU2:GFP-TOR1); test: MST binding affinity assays with fluorescent TORC1 (GFP–Tor1); details: purified yeast TORC1 (GFP–Tor1) 7.5 nM, 30 °C; mean ± s.d., n = 3; read-out: Kd (binding of Mal-CoA to TORC1, MST)
MEASURED_METRIC: Kd (µM)

| COMPOUND | TARGET_ENTITY | MEASURED_METRIC | RECORDED_VALUE |
| --- | --- | --- | --- |
| CC(C)(COP(=O)(O)OP(=O)(O)OCC1OC(n2cnc3c(N)ncnc32)C(O)C1OP(=O)(O)O)C(O)C(=O)NCCC(=O)NCCSC(=O)CC(=O)O (stereo not shown) | TORC1 (Saccharomyces cerevisiae) | Kd | 19.3 |

* * *

biological target: mTORC1 (Homo sapiens, UniProt P42345); construct: endogenous mTORC1 complexes were purified from HEK293FT cells; endogenous in cells; host or cells: HEK293FT (immunoprecipitation of endogenous mTOR); the 4E-BP1 substrate was made in E. coli BL21 RP; assay: Mammalian mTORC1 kinase activity assays (IVK, 4E-BP1 substrate); type: biochemical; conditions: mTORC1 immunoprecipitated from HEK293FT, recombinant 4E-BP1, 500 μM ATP
pIC50: −log10 of the molar value.
MEASURED_METRIC: pIC50

| COMPOUND | RECORDED_VALUE |
| --- | --- |
| CC(=O)SCCNC(=O)CCNC(=O)[C@H](O)C(C)(C)COP(=O)(O)OP(=O)(O)OC[C@H]1O[C@@H](n2cnc3c(N)ncnc32)[C@H](O)[C@@H]1OP(=O)(O)O [acetyl-CoA] | 2.99 |
